target: T1, human BACE1 ECD; test: Octet, pH 5.0
T1 construct: analyte of the Octet assay (200 nM) and enzyme of the first short substrate assay; also called human BACE1 extracellular domain
T1 sequence (single chain, as listed by the source limits assumed): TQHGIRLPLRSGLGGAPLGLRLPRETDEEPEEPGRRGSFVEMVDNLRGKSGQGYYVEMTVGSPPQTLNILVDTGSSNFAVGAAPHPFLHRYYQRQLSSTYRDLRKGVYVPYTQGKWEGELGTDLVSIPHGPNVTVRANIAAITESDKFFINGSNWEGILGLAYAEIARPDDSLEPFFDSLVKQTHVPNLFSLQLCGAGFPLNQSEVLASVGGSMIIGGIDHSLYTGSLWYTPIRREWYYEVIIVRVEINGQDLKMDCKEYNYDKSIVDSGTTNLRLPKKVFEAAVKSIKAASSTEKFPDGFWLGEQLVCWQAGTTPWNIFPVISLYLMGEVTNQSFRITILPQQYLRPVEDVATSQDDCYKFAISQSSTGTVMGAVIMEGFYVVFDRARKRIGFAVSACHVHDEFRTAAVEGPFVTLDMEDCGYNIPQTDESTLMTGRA
pKd: −log10 of the molar value.

# binder, pKd
rows = [
    ("6313 (antibody, V domains shown, anti-BACE1 IgG) VH: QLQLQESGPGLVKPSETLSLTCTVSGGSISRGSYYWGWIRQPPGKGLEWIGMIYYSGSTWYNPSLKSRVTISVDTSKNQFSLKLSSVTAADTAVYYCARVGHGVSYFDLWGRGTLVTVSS VL: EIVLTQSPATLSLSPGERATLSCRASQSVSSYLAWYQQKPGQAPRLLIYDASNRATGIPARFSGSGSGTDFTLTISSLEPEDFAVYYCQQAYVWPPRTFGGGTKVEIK", "> 9.68"),
    ("6305 (antibody, V domains shown, anti-BACE1 IgG) VH: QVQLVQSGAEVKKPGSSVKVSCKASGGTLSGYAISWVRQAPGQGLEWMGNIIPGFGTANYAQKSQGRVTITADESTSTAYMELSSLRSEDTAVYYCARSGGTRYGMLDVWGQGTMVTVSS VL: EIVLTQSPATLSVSPGERATLSCRASQSVGSNLAWYQQKPGQAPRLLIYGASTRATGIPARFSGSGSGTEFTLTISSLQSEDFAVYYCQQSFVWPPRTFGGGTKVEIK", 9.02),
    ("6308 (antibody, V domains shown, anti-BACE1 IgG) VH: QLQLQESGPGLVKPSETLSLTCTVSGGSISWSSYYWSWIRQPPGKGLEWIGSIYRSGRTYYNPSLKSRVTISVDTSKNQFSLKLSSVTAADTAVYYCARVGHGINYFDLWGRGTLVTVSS VL: EIVLTQSPATLSLSPGERATLSCRASQSVSSYLAWYQQKPGQAPRLLIYDASKRATGIPARFSGSGSGTDFTLTISSLEPEDFAVYYCQQSLVWPPRTFGGGTKVEIK", "> 9.85"),
]

Data provenance: patent US20180057604A1
